Target: human recombinant adrenergic α2B receptor (Homo sapiens, UniProt P18089)
Construct: expressed in transfected cells; host or cells: CHO-K1
Sequence (P18089 whole entry): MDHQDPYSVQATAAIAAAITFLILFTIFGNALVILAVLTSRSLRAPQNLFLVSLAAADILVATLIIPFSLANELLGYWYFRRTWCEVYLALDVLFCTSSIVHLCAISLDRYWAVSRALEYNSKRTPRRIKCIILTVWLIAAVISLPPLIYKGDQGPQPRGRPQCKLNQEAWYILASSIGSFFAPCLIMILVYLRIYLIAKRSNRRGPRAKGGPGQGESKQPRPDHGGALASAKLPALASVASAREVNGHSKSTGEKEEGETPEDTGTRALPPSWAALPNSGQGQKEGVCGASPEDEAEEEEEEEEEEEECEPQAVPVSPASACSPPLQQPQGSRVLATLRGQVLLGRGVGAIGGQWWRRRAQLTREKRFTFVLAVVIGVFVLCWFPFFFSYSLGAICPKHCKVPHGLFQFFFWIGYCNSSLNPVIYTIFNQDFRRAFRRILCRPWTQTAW
Test: Radioligand binding, adrenergic α2B ([3H]Rauwolscine)
Settings: read-out: Percentage inhibition of ligand binding, Adrenergic α2B (0.1 μM), compound at 0.1 μM; [3H]Rauwolscine; repeat datapoints each shown
Procedure: To evaluate in radioligand binding assays the activity of compounds of the invention, human recombinant adrenergic α2B receptor expressed in Chinese hamster ovary (CHO) K1 cells (Uhlen, S. et al, Eur. J. Pharmacol. 343(1):93, 1998) in a modified Tris-HCl buffer (50 mM Tris-HCl, pH 7.4, 12.5 mM MgCl2, 1 mM EDTA, 0.2% BSA) was used. […] Receptor proteins were filtered and washed, the filters were then counted to determine [3H]Rauwolscine specifically bound. […]
So basically: inhibition at 0.1 µM at 90% or higher? That is y. Lower than 90%? That is n.

Illustrative cases are given below, each with its answer.
COMPOUND: C/C(=C\n1c2c(c3cc(C)ccc31)CN(C)CC2)c1cccc2ccccc12 [compound 113]
MEASUREMENT TARGET: human recombinant adrenergic α2B receptor (Homo sapiens, UniProt P18089)
GROUP LABEL: n
//
COMPOUND: C/C(=C\n1c2c(c3cc(C)ccc31)CCN(C)CC2)c1ccccc1F [compound 232]
MEASUREMENT TARGET: human recombinant adrenergic α2B receptor (Homo sapiens, UniProt P18089)
GROUP LABEL: y
//
COMPOUND: CN1CCc2c(c3ccccc3n2CC(C)(O)c2ccncc2)C1 (stereo not drawn) [II-171]
MEASUREMENT TARGET: human recombinant adrenergic α2B receptor (Homo sapiens, UniProt P18089)
GROUP LABEL: y
//
COMPOUND: COc1ccc(C(C)(O)Cn2c3c(c4cc(C)ccc42)CN(C)CC3)cc1F (stereo not drawn) [II-163]
MEASUREMENT TARGET: human recombinant adrenergic α2B receptor (Homo sapiens, UniProt P18089)
GROUP LABEL: n
//
COMPOUND: Cc1ccc(CCn2c3c(c4cc(Cl)ccc42)CN(C)CC3)cc1 [compound 208]
MEASUREMENT TARGET: human recombinant adrenergic α2B receptor (Homo sapiens, UniProt P18089)
GROUP LABEL: y

In: Given Cc1ccc2c(c1)c1c(n2CCc2ccc(F)cc2)CCN(C)C1 [compound 206] , state whether its inhibition at 0.1 µM is at least 90%.
Out: y

In: What about Cc1ccc2c(c1)c1c(n2CC(O)c2ccc(C(N)=O)nc2)CCN(C)C1 (single isomer, unassigned) [144b] ?
Out: y

In: What would you report for Cc1ccc(CCn2c3c(c4cccnc42)C2CCCN2CC3)cn1 (stereo not drawn) [IV-4] ?
Out: n
